Below: a set of entries, each annotated with reported kon.
tested.target: T1, extracellular domain (ECD) of human epidermal growth factor receptor 2 (HER2) (Homo sapiens, UniProt P04626)
T1 construct: human epidermal growth factor receptor 2 (HER2), extracellular domain; also called HER2/ECD
procedure.summary: SPR; BIAcore T200; HER2/ECD immobilised on a CM5 chip by amine coupling to 1000 RU; IgG flowed in PBST (0.05% Tween 20) at 30 uL/min; regeneration 10 mM glycine pH 1.5; global fit to a 1:1 binding model
particulars: both partners purified
Give your result in M⁻¹ s⁻¹ as a bare value.

>  <binder>
GH2-14 IgG (antibody, V domains shown, source: HEK293-F, transient transfection, purified (Protein A, Superdex 200)) VH: EVQLVESGGGLVQPGGSLRLSCAASGFTINDHGIHWVRQAPGKGLEWVAGIGPFGGYTSYADSVKGRFTISADTSKNTAYLQMNSLRAEDTAVYYCARFNFNDVGGMDYWGQGTLVTVSS VL: DIQMTQSPSSLSASVGDRVTITCRASQDVGGGVAWYQQKPGKAPKLLISGPPYLYSGVPSRFSGSGSGTDFTLTISSLQPEDFATYYCQQYFNYPITFGQGTKVEIK

>  <kon, M⁻¹ s⁻¹>
336000

$$$$

Enquiry: Annotate the binder GH2-104 IgG (antibody, V domains shown, source: HEK293-F, transient transfection, purified (Protein A, Superdex 200)) VH: EVQLVESGGGLVQPGGSLRLSCAASGFTIDSWGIHWVRQAPGKGLEWVAGIGPFGGYTSYADSVKGRFTISADTSKNTAYLQMNSLRAEDTAVYYCARFGDYIDGVMDYWGQGTLVTVSS VL: DIQMTQSPSSLSASVGDRVTITCRASQDVNSNVAWYQQKPGKAPKLLIYGSPSLYSGVPSRFSGSGSGTDFTLTISSLQPEDFATYYCQQYYDWPLTFGQGTKVEIK with its measured kon.
Return: 852000
